Data provenance: paper PMC12766724

# System: C. elegans CB3474 ben-1(e1880) III.
# ASSAY_SUMMARY: Chitinase assay (reproductive capacity)
# Assay type: in vivo
# MEASUREMENT_CONDITIONS: Caenorhabditis elegans; mebendazole-resistant strain
pIC50: −log10 of the molar value.
The entries below come with measured pIC50 values attached.

SMILES_CODE: CCCOc1ccc(-c2ccc3[nH]ccc3c2)cc1
pIC50: 5.08

SMILES_CODE: Clc1ccc(-c2ccc3[nH]ccc3c2)cc1
pIC50: 5.18

SMILES_CODE: CCOc1cc(-c2ccc3[nH]ccc3c2)ccc1Cl
pIC50: 5.11

SMILES_CODE: CCOc1cccc(-c2ccc3[nH]ccc3c2)c1
pIC50: 4.99

SMILES_CODE: CCCOc1cccc(-c2ccc3[nH]ccc3c2)c1
pIC50: 5.08

SMILES_CODE: CC(C)Oc1cccc(-c2ccc3[nH]ccc3c2)c1
pIC50: 4.99

SMILES_CODE: CC(C)Oc1cc(-c2ccc3[nH]ccc3c2)ccc1Cl
pIC50: 5.13

SMILES_CODE: FC(F)(F)Oc1ccc(-c2ccc3[nH]ccc3c2)cc1
pIC50: 5.05

SMILES_CODE: Fc1ccc(-c2ccc3[nH]ccc3c2)cc1
pIC50: 5.00
